# SYSTEM: CAVA (Homo sapiens, UniProt P35218)
# Sequence (P35218 39-305): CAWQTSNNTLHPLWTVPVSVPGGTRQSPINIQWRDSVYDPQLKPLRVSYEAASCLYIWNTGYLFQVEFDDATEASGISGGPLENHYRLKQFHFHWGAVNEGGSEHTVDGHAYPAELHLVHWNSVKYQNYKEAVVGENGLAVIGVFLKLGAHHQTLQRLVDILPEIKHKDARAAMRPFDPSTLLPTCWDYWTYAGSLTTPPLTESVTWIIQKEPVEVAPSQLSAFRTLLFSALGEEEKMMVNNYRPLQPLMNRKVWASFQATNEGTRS
# TEST PROTOCOL: fluorescent thermal shift assay (FTSA), CAVA
# Type: binding
# DETAILS: converted from Kd_intr, 37 °C, independent of pH
Form field: ΔGintr CAVA (one value per entry).

Using the record for `COC(=O)c1cc(S(N)(=O)=O)c(S(=O)(=O)Cc2ccccc2)cc1Cl` , report its ΔGintr CAVA.
≥ -9.46 kcal/mol

Now consider `COC(=O)c1cc(S(N)(=O)=O)c(S(=O)(=O)CCc2ccccc2)cc1Cl` .
≥ -9.46 kcal/mol

Now consider COC(=O)c1cc(S(N)(=O)=O)c(Cl)cc1Cl [Compound 1, Methyl 2,4-dichloro-5-sulfamoyl-benzoate] .
-10.3 kcal/mol

Now consider `COC(=O)c1cc(S(N)(=O)=O)c(S(=O)(=O)C2CCCCC2)cc1Br` .
≥ -9.61 kcal/mol

Now consider `COC(=O)c1cc(S(N)(=O)=O)c(Cl)cc1S(=O)(=O)CCc1ccccc1` .
-11.8 kcal/mol

Now consider `COC(=O)c1cc(S(N)(=O)=O)c(Cl)cc1Sc1ccccc1` .
≥ -8.91 kcal/mol

Now consider `COC(=O)c1cc(S(N)(=O)=O)c(SCc2ccccc2)cc1Cl` .
≥ -9.06 kcal/mol

Now consider `COC(=O)c1cc(S(N)(=O)=O)c(Cl)cc1SC1CCCCC1` .
-11.3 kcal/mol

---
Using the record for `COC(=O)c1cc(S(N)(=O)=O)c(SCCc2ccccc2)cc1Cl` , report its ΔGintr CAVA.
-9.54 kcal/mol

Now consider `COC(=O)c1cc(S(N)(=O)=O)c(SC2CCCCC2)cc1Br` .
≥ -9.2 kcal/mol

Now consider `COC(=O)c1cc(S(N)(=O)=O)c(Br)cc1Sc1ccccc1` .
-9.44 kcal/mol
